Target: HDAC1 (Homo sapiens, UniProt Q13547)
Construct: purchased Enzo Life Sciences
Sequence (Q13547 whole entry): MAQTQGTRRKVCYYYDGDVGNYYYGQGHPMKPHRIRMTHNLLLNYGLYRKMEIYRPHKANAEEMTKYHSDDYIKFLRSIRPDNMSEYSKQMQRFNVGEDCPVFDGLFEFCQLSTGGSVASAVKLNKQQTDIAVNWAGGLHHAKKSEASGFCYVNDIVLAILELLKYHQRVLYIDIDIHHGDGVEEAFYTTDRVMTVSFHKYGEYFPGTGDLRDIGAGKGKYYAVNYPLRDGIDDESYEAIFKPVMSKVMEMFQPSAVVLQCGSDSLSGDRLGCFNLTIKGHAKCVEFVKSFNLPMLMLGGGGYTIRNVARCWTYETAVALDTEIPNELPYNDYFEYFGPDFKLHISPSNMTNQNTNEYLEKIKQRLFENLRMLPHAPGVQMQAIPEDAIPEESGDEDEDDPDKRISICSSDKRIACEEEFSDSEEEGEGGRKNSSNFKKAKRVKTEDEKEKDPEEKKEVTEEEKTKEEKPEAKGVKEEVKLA
Test: HDAC Inhibition Screening Assay (FLUOR DE LYS Fluorimetric Drug Discovery Kit), HDAC1
Assay type: biochemical
Settings: 50 μM compound
Experimental: The HDAC1/HDAC2/HDAC3 in vitro activities are detected by Enzo Life Sciences' HDAC1/HDAC2/HDAC3 Fluorimetric Drug Discovery Kit. The assay is based on the FLUOR DE LYS® Substrate and FLUOR DE LYS® Developer combination. The assay procedure has two steps. […] The signals of the test compounds (Compounds 1˜83; at concentrations of 2 μM, 10 μM and 50 μM) in 96-well plates are detected at 360 nm or 485 nm excitation and 460 nm or 530 nm emission with a Molecular Devices SpectraMax i3 Imaging Cytometer. […]
MEASURE: inhibition at 50 µM

Worked examples follow.
>>> print(df.to_string())
                                   molecule                       measured_target  result
0  O=C(/C=C/c1ccc2c(c1)CCC2NC(=O)c1cc(C(F)(F)F)cc(C(F)(F)F)c1)NO (stereo not shown)  HDAC1 (Homo sapiens, UniProt Q13547)   > 80%
1  Nc1cc(F)ccc1NC(=O)/C=C/c1ccc(COc2ccc3c(c2)CC/C(=C\c2cc(C(F)(F)F)cc(C(F)(F)F)c2)C3=O)cc1  HDAC1 (Homo sapiens, UniProt Q13547)   < 50%
2     O=C(CCCCCCC(=O)Nc1ccc2c(c1)CCCC2=O)NO  HDAC1 (Homo sapiens, UniProt Q13547)   > 80%

Each molecule below has a reported value. Please supply its inhibition at 50 µM.
1. COc1ccc2c(c1)CCC2NC(=O)CCCCCCC(=O)Nc1ccc(F)cc1N (stereo not shown)
2. O=C(/C=C/c1ccc2c(c1)CC/C(=C\c1cc(C(F)(F)F)cc(C(F)(F)F)c1)C2=O)NCCCCCC(=O)NO
3. Nc1cc(F)ccc1NC(=O)CCCCCNC(=O)/C=C/c1ccc2c(c1)CCC2NC(=O)c1ccc(F)cc1 (stereo not shown)

A.
< 50%
> 80%
50 to 80%

Q. Item: Nc1cc(F)ccc1NC(=O)c1ccc(COc2ccc3c(c2)CCC(Cc2cc(C(F)(F)F)cc(C(F)(F)F)c2)C3=O)cc1 (stereo not shown) Test system: HDAC1 (Homo sapiens, UniProt Q13547) Read-out: inhibition at 50 µM Value: ?
A. < 50%

----------
target: HDAC3 (Homo sapiens); construct: purchased Enzo Life Sciences; test: HDAC Inhibition Screening Assay (FLUOR DE LYS Fluorimetric Drug Discovery Kit), HDAC3; type: biochemical; settings: 50 μM compound
Sequence (O15379 whole entry): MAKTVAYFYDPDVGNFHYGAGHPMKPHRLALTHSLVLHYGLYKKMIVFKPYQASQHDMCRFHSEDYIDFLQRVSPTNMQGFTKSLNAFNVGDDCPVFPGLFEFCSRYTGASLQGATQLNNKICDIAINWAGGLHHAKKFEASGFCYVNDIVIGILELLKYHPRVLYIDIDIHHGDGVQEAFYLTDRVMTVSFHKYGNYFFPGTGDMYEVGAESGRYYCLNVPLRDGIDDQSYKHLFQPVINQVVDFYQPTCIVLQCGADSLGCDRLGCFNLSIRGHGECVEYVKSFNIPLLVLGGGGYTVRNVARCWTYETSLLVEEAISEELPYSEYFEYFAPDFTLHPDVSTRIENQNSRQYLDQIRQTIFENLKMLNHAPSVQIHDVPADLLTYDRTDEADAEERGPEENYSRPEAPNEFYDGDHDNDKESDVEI
Sequence (O75376 395-489 partner limits assumed): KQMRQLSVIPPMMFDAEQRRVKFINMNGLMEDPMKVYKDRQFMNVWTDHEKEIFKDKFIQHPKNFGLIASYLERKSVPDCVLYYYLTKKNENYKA
Give measured inhibition at 50 µM for each item. Keep answers brief.

Answered examples (3):
                                   compound              measure  result
0  O=C(CCCCC(=O)Nc1ccc2c(c1)CC/C(=C\c1cc(C(F)(F)F)cc(C(F)(F)F)c1)C2=O)NO [Compound 14]  inhibition at 50 µM   > 80%
1  Cc1[nH]c2ccccc2c1CCNC1CCc2cc(/C=C/C(=O)NO)ccc21 (centres unmarked) [Compound 60]  inhibition at 50 µM   > 80%
2  Nc1cc(F)ccc1NC(=O)CCCCCC(=O)Nc1ccc2c(c1)CC/C(=C\c1cc(C(F)(F)F)cc(C(F)(F)F)c1)C2=O [Compound 11]  inhibition at 50 µM   < 50%

# batch size: 3; output inhibition at 50 µM per entry
1. CN(C)c1ccc(CCNC2CCc3cc(/C=C/C(=O)NO)ccc32)cc1 (centres unmarked) [Compound 56]
2. O=C(CCCCCCC(=O)NC1CCCc2cc(Br)ccc21)NO (centres unmarked) [Compound 46]
3. Nc1cc(F)ccc1NC(=O)CCCCCCC(=O)NC1CCc2cc(/C=C/C(=O)Nc3cc(Cl)cc(Cl)c3)ccc21 (centres unmarked) [Compound 41]

A.
1: > 80%; 2: 50 to 80%; 3: < 50%

For every record below, what is its inhibition at 50 µM?
1. O=C(CCCCCNC(=O)c1ccc2c(c1)CC/C(=C\c1cc(C(F)(F)F)cc(C(F)(F)F)c1)C2=O)NO [Compound 79]
2. COc1ccc(C(=O)NC2CCc3cc(/C=C/C(=O)NO)ccc32)cc1 (centres unmarked) [Compound 25]

A.
1: > 80%; 2: > 80%
